# activity at 10 µM per entry
# target_desc: UniProt:O14842
# Sequence (O14842 whole entry): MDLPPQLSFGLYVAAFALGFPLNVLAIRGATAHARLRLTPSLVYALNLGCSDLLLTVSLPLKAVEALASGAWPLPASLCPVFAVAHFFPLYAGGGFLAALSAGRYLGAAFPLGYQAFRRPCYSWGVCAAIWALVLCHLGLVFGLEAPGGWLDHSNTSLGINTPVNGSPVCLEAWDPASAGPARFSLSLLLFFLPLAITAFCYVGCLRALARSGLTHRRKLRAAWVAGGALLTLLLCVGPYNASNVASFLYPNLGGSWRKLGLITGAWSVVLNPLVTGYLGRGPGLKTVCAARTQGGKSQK
# assay_notes: GPR40 functional assay, agonist effect (intracellular Ca2+, fluorimetry)
# Type: cell-based
# condition_notes: HEK293, human recombinant GPR40 in HEK-293 cells, control 100 μM linoleic acid, 1st replicate, read-out: % of control agonist response, 1st
assay_endpoint: activity at 10 µM (%)

- compound: "COc1nc(-c2cccc(-c3cccc4c3CC[C@@H]4Oc3nc(OC)c(CNC4(C(=O)O)CC4)cc3C(F)(F)F)c2Cl)ccc1CNC[C@@H]1CCC(=O)N1 [B-36]"
  target_desc: "UniProt:O14842"
  unit_string: "%"
  recorded_value: -0.4
- compound: "COc1nc(-c2cccc(-c3cccc4c3CC[C@@H]4Oc3nc(OC)c(CN4CC5(C(=O)O)CCC4CC5)nc3C)c2Cl)ccc1CNC[C@@H]1CCC(=O)N1 [B-149]"
  target_desc: "UniProt:O14842"
  unit_string: "%"
  recorded_value: -2
- compound: "COc1nc(-c2cccc(-c3cccc4c3CC[C@@H]4Nc3nc(OC)c(CN4CC5(C(=O)O)CCC4CC5)nc3C(F)(F)F)c2Cl)ccc1CNC[C@@H]1CCC(=O)N1 [A-18]"
  target_desc: "UniProt:O14842"
  unit_string: "%"
  recorded_value: -0.6
- compound: "COc1nc(-c2cccc(-c3cccc4c3CC[C@@H]4Nc3nc(OC)c(CNC4(C(=O)O)CC4)cc3C(F)(F)F)c2Cl)ccc1CNC[C@@H]1CCC(=O)N1 [A-41]"
  target_desc: "UniProt:O14842"
  unit_string: "%"
  recorded_value: 1.1

* * *

# target_desc: PD-L1 (Homo sapiens (Human), UniProt Q9NZQ7)
# Sequence (Q9NZQ7 19-238): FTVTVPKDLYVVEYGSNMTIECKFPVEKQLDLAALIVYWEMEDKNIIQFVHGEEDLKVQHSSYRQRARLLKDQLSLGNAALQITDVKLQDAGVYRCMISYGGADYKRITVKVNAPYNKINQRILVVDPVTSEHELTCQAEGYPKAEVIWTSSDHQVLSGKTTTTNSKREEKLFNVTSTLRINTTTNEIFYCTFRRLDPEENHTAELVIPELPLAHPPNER
# Sequence (Q9NZQ7 19-238): as above
# assay_notes: PD-L1/PD-L1 dimerization biochemical protein-protein interaction assay (ALPHA)
# Format: binding
# condition_notes: 0.5 nM His tagged PD-L1 and 0.5 nM FLAG tagged PD-L1, Table 4B, read-out: AC50 PDL1 Dimer 1 nM

- given_smiles: "COc1nc(-c2cccc(-c3cccc4c3CC[C@@H]4Oc3nc(OC)c(CN[C@H](C(=O)O)C4CC4)cc3C(F)(F)F)c2Cl)ccc1CN[C@H]1C[C@](C)(O)C1"
  AC50, nM: 7.89
- given_smiles: "COc1nc(-c2cccc(-c3cccc4c3CC[C@@H]4Oc3nc(OC)c(CNCCC(=O)O)cc3Cl)c2Cl)ccc1CNC[C@@H]1CCC(=O)N1"
  AC50, nM: 11.2
- given_smiles: "COc1cc(O[C@H]2CCc3c(-c4cccc(-c5ccc(CNC[C@@H]6CCC(=O)N6)c(OC)n5)c4Cl)cccc32)c(C(F)(F)F)cc1CNC1(C(=O)O)CC1"
  AC50, nM: 2.04
- given_smiles: "COc1nc(-c2cccc(-c3cccc4c3CC[C@@H]4Oc3nc(OC)c(CNC4(C(=O)O)CC4)nc3C(F)(F)F)c2Cl)ccc1CNC[C@@H]1CCC(=O)N1"
  AC50, nM: 10.4
- given_smiles: "COc1nc(-c2cccc(-c3cccc4c3CC[C@@H]4Oc3nc(OC)c(CN4CCC[C@@H]4C(=O)O)cc3Cl)c2Cl)ccc1CNC[C@@H]1CCC(=O)N1"
  AC50, nM: 24.5
- given_smiles: "COc1nc(O[C@H]2CCc3c(-c4cccc(-c5cc(F)c(CNC[C@@H]6CCC(=O)N6)c(OC)n5)c4Cl)cccc32)c(Cl)cc1CN1CC(C(=O)O)C1"
  AC50, nM: 38.9
- given_smiles: "COc1nc(-c2cccc(-c3cccc4c3CC[C@@H]4Oc3nc(OC)c(CN4[C@H](C(=O)O)C[C@@H]5C[C@@H]54)cc3C(F)(F)F)c2Cl)ccc1CNC[C@@H]1CCC(=O)N1"
  AC50, nM: 6.19
- given_smiles: "COc1nc(O[C@H]2CCc3c(-c4cccc(-c5cc(C)c(CN6C[C@@H]7C[C@]7(C(=O)O)C6)c(OC)n5)c4Cl)cccc32)c(Cl)cc1CNC[C@@H]1CCC(=O)N1"
  AC50, nM: 301
- given_smiles: "COc1cc(-c2cccc(-c3cccc4c3CC[C@@H]4Oc3nc(OC)c(CN4CC5(C(=O)O)CCC4CC5)cc3C(F)(F)F)c2Cl)cc(F)c1CNC[C@@H]1CCC(=O)N1"
  AC50, nM: 4.54
- given_smiles: "COc1cc(-c2cccc(-c3cccc4c3CC[C@@H]4Oc3nc(OC)c(CNC(C)(C)CC(=O)O)cc3C(F)(F)F)c2Cl)cc(F)c1CNC[C@@H]1CCC(=O)N1"
  AC50, nM: 6.8
- given_smiles: "COc1cc(-c2cccc(-c3cccc4c3CC[C@@H]4Oc3nc(OC)c(CN4CC5(C(=O)O)CCC4CC5)cc3C(F)(F)F)c2Cl)ccc1CNC[C@@H]1CCC(=O)N1"
  AC50, nM: 2.28
